- Test system: BT-549 breast
- assay-text: NCI tumour cell line growth inhibition, 48 h
measurement-label: TGI (µM)
Please give a number only; it is taken to be in µM.

Below are worked cases with known answers.
molecule	TGI, µM
COc1ccc2nc(-c3ccccc3)cc(Nc3cccc(C(C)=O)c3)c2c1	40.3
NC(N)=NS(=O)(=O)c1ccc(NNC(=O)c2cccc3c(=O)c4ccccc4[nH]c23)cc1	73.6
C/C(=N/O)c1ccc2c(c1)/C(=N/O)c1ccccc1-2	50.4
COc1cc(C2c3[nH]c4ccccc4c3[C@@H](Nc3ccc(C#N)cc3)[C@H]3COC(=O)N23)cc(OC)c1O (stereo partly drawn)	0.796
C[C@@H](NC(=O)c1ncnc(N)c1Cl)c1ncc(C(=O)Nc2cc(C(F)(F)F)c(Cl)cn2)s1	81.2

Hello, please tell me recorded TGI for this one: CC[C@]1(O)CC2CN(CCc3c([nH]c4ccccc34)[C@@](C(=O)OC)(c3cc4c(cc3OC)N(C=O)[C@H]3[C@@](O)(C(=O)OC)[C@H](OC(C)=O)[C@]5(CC)C=CCN6CC[C@]43[C@@H]65)C2)C1 (stereo partly drawn)
0.149

###

- Test system: NCI-H522 lung
- assay-text: NCI tumour cell line growth inhibition, 48 h
measurement-label: TGI

Hello, please tell me recorded TGI for this one: COC1OC(CBr)C(OC(=O)c2ccccc2)C(OS(=O)(=O)c2ccc(C)cc2)C1Br (stereo unspecified)
> 100 µM

Hello, please tell me recorded TGI for this one: `CCOC(=O)c1sc2c(c1O)c(=O)n(-c1ccccc1)c(=S)n2-c1ccccc1`
> 100 µM

Hello, please tell me recorded TGI for this one: CCOC(=O)CCC(NC(=O)c1ccc(N=Cc2nc3ccccc3nc2-c2ccccc2)cc1)C(=O)OCC (stereo unspecified)
> 100 µM

Hello, please tell me recorded TGI for this one: `CCc1[nH]c(=O)c2oc3cc4ccccc4cc3c2c1C(=O)O`
> 10 µM

Hello, please tell me recorded TGI for this one: CCN(CC)CCC1(C2CCCCC2)CCC(=O)NC1=O (stereo unspecified)
> 100 µM

Hello, please tell me recorded TGI for this one: O=C1C2c3[nH]c4ccccc4c3C3CCCCCC3C2C(=O)N1c1ccccc1 (stereo unspecified)
> 100 µM

###

- Test system: SF-295 CNS
- assay-text: NCI tumour cell line growth inhibition, 48 h
measurement-label: TGI

compound	target-entity	measurement-label	test-value
COc1cccc(/C=N/[N-]C(N)=O)c1[O-].[Ni+2].[OH3+]	SF-295 CNS	TGI	2.36 µM
CCOC(=O)CCC(NC(=O)c1ccc(N=Cc2nc3ccccc3nc2-c2ccccc2)cc1)C(=O)OCC (stereo unspecified)	SF-295 CNS	TGI	> 100 µM
CC1=C[C@@H](C)C[C@]2(C)CC[C@H](O2)[C@]23CC[C@](CO)(C[C@H](O2)[C@@H]2O[C@@](C)(CC2=O)[C@@H](O)[C@H]2CC[C@@]4(CCC[C@@H](O4)[C@H](C)C(=O)O[C@H]4C[C@H]([C@]5(O)OCC[C@H](C)[C@@H]5O)O[C@H]4C=C1)O2)O3	SF-295 CNS	TGI	> 10 µM

Hello, please tell me recorded TGI for this one: `CCCCCCCCCCCCCCCCCCOc1ccccc1CC(=O)OCC[N+](CC)(CC)CC`
5.11 µM

###

- Tested on: LOX IMVI melanoma
- assay-text: NCI tumour cell line growth inhibition, 48 h
Items are presented alongside their recorded TGI.

Hello, please tell me recorded TGI for this one: `CCCCNC(=NCc1ccccc1)NC#N`
> 100 µM

Hello, please tell me recorded TGI for this one: `Cc1cc(C)c2c(c1)N[S@@](=O)S2`
30.7 µM

Hello, please tell me recorded TGI for this one: `CCOC(=O)c1c(-c2cccc(Cl)c2)c(C(=O)OC)c(C)c2sc(C=O)nc12`
28.9 µM

Hello, please tell me recorded TGI for this one: CCN(CC)CC(=O)NC1c2ccccc2Oc2c(C)cccc21 (centres undefined)
> 100 µM

###

- System: SF-295 CNS
- assay-text: NCI tumour cell line growth inhibition, 48 h
measurement-label: TGI

Below are worked cases with known answers.
compound	TGI
O=C1C2Cc3c(n(C(=O)c4ccccc4)c4ccccc34)CC2C(=O)N1c1ccc(Nc2ccc(N3C(=O)C4Cc5c(n(C(=O)c6ccccc6)c6ccccc56)CC4C3=O)cc2)cc1 (stereo not drawn)	> 100 µM
CCO/C(O)=C(/C(=N)N1CCCC1)C(=O)Nc1cccc(Cl)c1	> 100 µM

Hello, please tell me recorded TGI for this one: `Oc1cc(CN2CCOCCOCCOCCOCC2)c(O)cc1CN1CCOCCOCCOCCOCC1`
> 100 µM

###

- Tested on: SF-268 CNS
- assay-text: NCI tumour cell line growth inhibition, 48 h; in the data active means GI50 below about 0.43 µM; inactive means the rest
Choose one outcome from this list and give only that: active, inactive

Consider the worked cases shown below.
molecule	target-entity	group-label
NC1=NC(=O)/C(=C/c2ccc3ncccc3c2)S1	SF-268 CNS	inactive
NC(Cc1c[nH]c2ccc(F)cc12)C(=O)O (configuration not stated)	SF-268 CNS	inactive
O=C1c2ccccc2C(=O)c2c1ccc1c(=O)n(-c3ccccc3C(F)(F)F)nnc21	SF-268 CNS	inactive
CCCCCCCCCC(CCCC(O)CC(=O)O)OC1OC(COC2OC(C)C(OC(C)=O)C(O)C2O)C(O)C(O)C1OC1OC(CO)C(O)C(O)C1OC1OC(C)C(OC(=O)CC(C)C)C(O)C1O (configuration not stated)	SF-268 CNS	inactive
CC(C)(C)NC(=O)[C@H]1CC[C@H]2[C@@H]3CC[C@H]4NC(=O)C=C[C@]4(C)[C@H]3CC[C@]12C	SF-268 CNS	inactive
COc1ccc(Cn2cc3c(c2)-c2oncc2CC3)cc1OC	SF-268 CNS	inactive

# lookup: test call for `CCCCCC[C@@H](C)Nc1nc2ccccc2c2occc12`
inactive

# lookup: test call for `COc1ccc2nc(-c3ccccc3)cc(Nc3cccc(C(C)=O)c3)c2c1`
inactive

# lookup: test call for `OCc1ccc(N2CCc3cc(F)ccc3C2)cc1Cl`
inactive

# lookup: test call for `C=C1C(=O)O[C@H]2[C@H]1CC/C(Cn1cc(-c3cccc(Cl)c3)nn1)=C\CC[C@@]1(C)O[C@@H]21`
inactive

# lookup: test call for `O=C(Cc1csc2nc(-c3ccc(Cl)cc3)cn12)N/N=C/c1ccccc1O`
inactive

# lookup: test call for `Cc1ccc(Cl)cc1NC(=O)c1cc2ccccc2cc1O`
active

###

- System: T-47D breast
- assay-text: NCI tumour cell line growth inhibition, 48 h; in the data active means GI50 below about 0.43 µM; inactive means the rest
Choose one outcome from this list and give only that: active, inactive

# lookup: test call for `COc1ccc(-c2nn(-c3ccc(NC(=O)c4cc(Cl)cc(Cl)c4)cc3)cc2-c2ccncc2)cc1Cl`
inactive

# lookup: test call for `O=C(Cc1csc2nc(-c3ccc(Cl)cc3)cn12)N/N=C/c1ccccc1O`
inactive

# lookup: test call for `Cc1ccc(-c2nc(N3CCNCC3)c3oc(-c4ccccc4)nc3n2)cc1`
inactive

###

- Test system: UACC-257 melanoma
- assay-text: NCI tumour cell line growth inhibition, 48 h; in the data active means GI50 below about 0.43 µM; inactive means the rest
Choose one outcome from this list and give only that: yes (1) for active, no (0) for inactive

Consider the worked cases shown below.
compound	group-label
CC(=O)[CH-]C(=O)c1ccccc1.CC(=O)[CH-]C(=O)c1ccccc1.CC(C)CCC[C@H](C)C1CCC2[C@@H]3CC=C4C[C@@H]([O-])CC[C@]4(C)C3CC[C@@]21C.CC(C)CCC[C@H](C)C1CCC2[C@@H]3CC=C4C[C@@H]([O-])CC[C@]4(C)C3CC[C@@]21C.Cl.[Ti+4] (stereo partly specified)	no (0)
Clc1ccc(Nc2nc(Nc3ccccc3)nc(Nc3ccc(-c4cc(-c5ccc(Cl)cc5)on4)cc3)n2)cc1	no (0)
Cc1nc(-c2cnc(NC(C)C)n(C)c2=O)ccc1Oc1ccnc(-c2cnn(C)c2)c1	no (0)
CCOC(=O)c1c(NC(=O)c2ccccc2)sc2c3c(ccc12)OCN(C)C3	no (0)
Cc1ccc(/C=C/c2c(C(=O)/C=C/c3ccc(Cl)cc3)c(C)nc3ccccc23)cc1	no (0)
Nc1nnnc2nc[nH]c12	no (0)
COc1ccc(Cl)cc1Nc1nc(C(F)(F)F)ccc1C(=O)N/N=C/c1cccnc1	no (0)
COc1ccc2nc(-c3ccccc3)cc(Nc3cccc(C(C)=O)c3)c2c1	no (0)
O=C(COc1ccc(OCC(=O)N2C(=O)CN(c3ccccc3)C2=S)cc1)N1C(=O)CN(c2ccccc2)C1=S	no (0)
CC[C@]1(O)CC2CN(CCc3c([nH]c4ccccc34)[C@@](C(=O)OC)(c3cc4c(cc3OC)N(C=O)[C@H]3[C@@](O)(C(=O)OC)[C@H](OC(C)=O)[C@]5(CC)C=CCN6CC[C@]43[C@@H]65)C2)C1 (stereo partly specified)	yes (1)

# lookup: test call for `O=C(Nc1ccc(-n2ccc3c(NC(=O)c4ccccc4)nccc32)cc1)Nc1cccc(C(F)(F)F)c1`
no (0)
